- System: MAb 40.1
- TEST_METHOD_NOTES: Antibody screening of lambda-gt 11 cDNA clones: binding of MAb 40.1
- Parameters: key: ++: strongest binding; -: no binding
- PROTOCOL_CONDITIONS: protein expressed by lambda-gt 11 clone in E. coli Y1090, plaque lift
MEASURE_NAME: Binding of MAb 40.1

Recorded results for 5 sequences are shown here.
> print(dat)
               sequence.code  result.value
1   ADAGYTPAAAAT [Peptide 1]             -
2   KFKIFEAAFSES [Peptide 8]             -
3  AAATPATPAATPA [Peptide 2]            ++
4  ALTEGLRVIAGA [Peptide 15]             -
5   AANAPPADKFKI [Peptide 7]            ++

Query string: I am curious: what Binding of MAb 40.1 value has been reported for KLLEDVNAGFKA [Peptide 5] ?
Result string: ++

Query string: Next record, please: PGLIPKLNTAYD [Peptide 11]
Result string: ++

Query string: Next record, please: AAEGATPEAKYD [Peptide 13]
Result string: ++

###

Provide the recorded pI for the entries that follow.
- TEST_METHOD_NOTES: Two dimensional gel electrophoresis of ryegrass pollen proteins (pI)
- Format: physicochemical, Lolium perenne
- PROTOCOL_CONDITIONS: allergen spot on two dimensional gel
Form rule: numeric answer, no unit written next to it.

Query string: I am curious: what pI value has been reported for FSESSKGLLATS [Peptide 9] ?
Result string: 7.2

Query string: Next record, please: KFKIFEAAFSES [Peptide 8]
Result string: 6.45

Query string: Next record, please: PGLIPKLNTAYD [Peptide 11]
Result string: 10.6

Query string: Next record, please: AAEGATPEAKYD [Peptide 13]
Result string: 7

Query string: Next record, please: ALTEGLRVIAGA [Peptide 15]
Result string: 9

Query string: Next record, please: AKYDAFVTALTE [Peptide 14]
Result string: 7.3

Query string: Next record, please: LATSAAKAPGLI [Peptide 10]
Result string: 8.3

Query string: Next record, please: KLLEDVNAGFKA [Peptide 5]
Result string: 6

Query string: Next record, please: AANAPPADKFKI [Peptide 7]
Result string: 6

Query string: Next record, please: GKATTDEQKLLE [Peptide 4]
Result string: 7

Query string: Next record, please: AAATPATPAATPA [Peptide 2]
Result string: 5.9

Query string: Next record, please: TAYDVAYKAAEG [Peptide 12]
Result string: 8.0

Query string: Next record, please: AATPAAAGGKAT [Peptide 3]
Result string: 6.45

Query string: Next record, please: ADAGYTPAAAAT [Peptide 1]
Result string: 5.5

Query string: Next record, please: GFKAAVAAAANA [Peptide 6]
Result string: 6.45

###

- System: MAb 12.3
- TEST_METHOD_NOTES: Antibody screening of lambda-gt 11 cDNA clones: binding of MAb 12.3
- Design: key: ++: strongest binding; -: no binding
- PROTOCOL_CONDITIONS: protein expressed by lambda-gt 11 clone in E. coli Y1090, plaque lift
MEASURE_NAME: Binding of MAb 12.3

> print(dat)
               sequence.code         measure.name  result.value
1  AKYDAFVTALTE [Peptide 14]  Binding of MAb 12.3            ++
2  LATSAAKAPGLI [Peptide 10]  Binding of MAb 12.3             -
3   FSESSKGLLATS [Peptide 9]  Binding of MAb 12.3             -
4  ALTEGLRVIAGA [Peptide 15]  Binding of MAb 12.3             -
5  TAYDVAYKAAEG [Peptide 12]  Binding of MAb 12.3            ++
6   KFKIFEAAFSES [Peptide 8]  Binding of MAb 12.3             -

Query string: Please tell me: Binding of MAb 12.3 of ADAGYTPAAAAT [Peptide 1] , system MAb 12.3?
Result string: -

Query string: Next record, please: VPAAKIPTGELQI [Peptide 18]
Result string: ++
